Task for the reader: assign each of the following variants its reported protein stability index.
B1: EHMT1 (parent)
chain: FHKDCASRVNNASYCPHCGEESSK

Variants of: B1
TEST_SUMMARY: protein stability index of a GFP-peptide fusion (GPS, HEK-293T) (PSI 1-6); higher = more stable;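 further: lentivirally expressed fusions sorted by FACS into six bins by GFP to DsRed ratio, PSI derived from sequencing read proportions per bin multiplied by bin number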
APPLIED_CONDITIONS: c terminus: a fixed tail appended

// for each variant in input: emit protein stability index
1. N10W
2. E20W
3. P16I
4. V9T
5. H17A
6. E20H
7. C5N
8. Y14S

Found:
1. 2.37
2. 3.77
3. 3.36
4. 3.73
5. 3.68
6. 2.99
7. 2.61
8. 3.26

// for each variant in input: emit protein stability index
1. D4E
2. H17Y
3. N10E
4. C18I
5. S23T
6. C5W

Found:
3.55
2.87
3.69
3.04
3.72
2.55

// for each variant in input: emit protein stability index
1. K3E
2. F1E
3. A6P
4. N10T
5. N11F

Found:
3.83
5.17
3.83
3.03
2.48
